System: human umbilical vein endothelial cells (HUVEC)
Experiment: HUVEC proliferation assay
Assay type: cell-based
Conditions: Homo sapiens, HUVEC, Table 3
Description: HUVEC Proliferation Assay This assay determines the ability of a test compound to inhibit the growth factor-stimulated proliferation of human umbilical vein endothelial cells (“HUVEC”). […] Cellular proliferation was quantified 72 hours later by MTT dye reduction, at which time cells were exposed for 4 hours MTT (Promega Corp.). Dye reduction was stopped by addition of a stop solution (Promega Corp.) and absorbance at 595 λ was determined on a 96-well spectrophotometer plate reader. […]
pIC50: −log10 of the molar value.
Please provide measured pIC50 for the entries that follow.

The examples below pair each entry with its known result.
[
  {
    "compound": "COc1cc(Nc2nc(N)c(-c3nc(-c4cccc(NC(=O)c5cnc6ccccc6c5)c4)cs3)s2)cc(OC)c1OC [D(60)]",
    "pIC50": "< 7.00"
  },
  {
    "compound": "COc1cc(Nc2nc(N)c(-c3nc(-c4cc(NC(=O)c5cccc(Cl)c5)ccc4Cl)no3)s2)cc(OC)c1OC [D(64)]",
    "pIC50": "7.00 to 8.00"
  }
]

# lookup: pIC50 of Nc1nc(Nc2cccc(-c3nn[nH]n3)c2)sc1-c1nc(-c2cccc(NC(=O)c3cccc(Cl)c3)c2)no1 [D(63)]
< 5.00

====

What inhibition at 1 µM was measured for each of the following?
Molecular target: CDK4/Cyclin D3 complex (Homo sapiens)
Construct: made in house; host or cells: insect cells co-infected with baculovirus vectors
Sequence (P11802 whole entry): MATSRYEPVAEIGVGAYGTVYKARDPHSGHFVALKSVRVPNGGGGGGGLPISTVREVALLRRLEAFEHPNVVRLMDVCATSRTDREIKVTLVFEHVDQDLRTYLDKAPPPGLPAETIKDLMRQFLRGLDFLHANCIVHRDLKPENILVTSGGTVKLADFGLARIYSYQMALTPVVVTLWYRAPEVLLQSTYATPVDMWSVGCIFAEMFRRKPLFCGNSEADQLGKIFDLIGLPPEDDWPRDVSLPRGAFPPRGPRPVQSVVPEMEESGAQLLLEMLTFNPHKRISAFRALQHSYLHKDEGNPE
Sequence (P30281 whole entry partner): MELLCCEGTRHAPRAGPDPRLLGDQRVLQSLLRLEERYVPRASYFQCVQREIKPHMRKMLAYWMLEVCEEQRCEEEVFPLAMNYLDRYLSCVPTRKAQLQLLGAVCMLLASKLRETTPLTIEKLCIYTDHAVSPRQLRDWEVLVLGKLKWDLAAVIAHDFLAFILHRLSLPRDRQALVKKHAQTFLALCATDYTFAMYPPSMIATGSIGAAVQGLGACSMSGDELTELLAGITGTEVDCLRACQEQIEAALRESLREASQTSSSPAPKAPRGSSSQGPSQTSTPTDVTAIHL
Assay: CDK4/Cyclin D assay
Type: biochemical
Conditions: 1.0 μM; combinatorial library compounds
Give bare numbers, in %.

Here is how some compounds turned out for inhibition at 1 µM.
[
  {
    "compound": "Cc1c(-c2csc(-c3sc(Nc4ccc(S(N)(=O)=O)cc4)nc3N)n2)sc2ccc(Cl)cc12 [drawing 424]",
    "testedTarget": "CDK4/Cyclin D3 complex (Homo sapiens)",
    "unitsOfMeasure": "%",
    "experimentalResult": 59.9
  },
  {
    "compound": "Nc1nc(Nc2ccc(S(N)(=O)=O)cc2)sc1-c1nc(-c2c(Cl)cc(C(F)(F)F)cc2Cl)cs1",
    "testedTarget": "CDK4/Cyclin D3 complex (Homo sapiens)",
    "unitsOfMeasure": "%",
    "experimentalResult": 58
  },
  {
    "compound": "CN(C)c1ccc(Nc2nc(N)c(-c3nc(-c4c(Cl)c(Cl)nc(Cl)c4Cl)cs3)s2)cc1",
    "testedTarget": "CDK4/Cyclin D3 complex (Homo sapiens)",
    "unitsOfMeasure": "%",
    "experimentalResult": 64.4
  }
]

Switching to the query record.
Which inhibition at 1 µM is reported with CDK4/Cyclin D3 complex (Homo sapiens) for this entry: COc1cc(OC)c(-c2csc(-c3sc(Nc4ccc(C(C)C)cc4)nc3N)n2)c(O)c1Cl ?
72.8

====

Molecular target: FGF-R1 (Homo sapiens, UniProt P11362, C488A/C584S/L457V)
Construct: starting from the endogenous methionine residue 456 to glutamate 766; made in house; host or cells: baculovirus vector expression system
Sequence (P11362 456-766 L457V/C488A/C584S): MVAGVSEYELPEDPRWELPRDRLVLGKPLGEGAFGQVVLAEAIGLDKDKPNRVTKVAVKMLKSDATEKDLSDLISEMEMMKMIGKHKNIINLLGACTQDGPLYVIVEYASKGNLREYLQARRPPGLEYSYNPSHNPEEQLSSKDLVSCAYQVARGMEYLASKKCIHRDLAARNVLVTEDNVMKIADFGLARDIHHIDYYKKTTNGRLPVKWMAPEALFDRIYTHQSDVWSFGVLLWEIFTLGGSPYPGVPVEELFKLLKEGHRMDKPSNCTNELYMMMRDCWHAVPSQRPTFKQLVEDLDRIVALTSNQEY
Assay: FGF-R spectrophotometric assay
Assay type: biochemical
Conditions: Table 3; % inh @ 1 uM; read-out: FGF-P Ki (nM) (% inh @ 1 uM)
Structures can show the parent of a compound that is named as a salt.
measuredAttribute: inhibition at 1 µM (%)
Give bare numbers, in %.

Check out these entries, answers already filled in.
[
  {
    "compound": "COc1cc(Nc2nc(N)c(-c3nc(-c4cccc(NC(=O)CC5CC6CCC5C6)c4)cs3)s2)cc(OC)c1OC (stereo not shown) [D(59)]",
    "testedTarget": "FGF-R1 (Homo sapiens, UniProt P11362, C488A/C584S/L457V)",
    "inhibition at 1 µM, %": 54
  },
  {
    "compound": "CNC(=O)Nc1nc(N)c(-c2nc(-c3cccc(NC(=O)c4cccc(Cl)c4)c3)cs2)s1 [F(10)]",
    "testedTarget": "FGF-R1 (Homo sapiens, UniProt P11362, C488A/C584S/L457V)",
    "inhibition at 1 µM, %": 47
  },
  {
    "compound": "COc1cccc(C(=O)Nc2ccc(C)c(-c3noc(-c4sc(Nc5ccc(N6CCOCC6)nc5)nc4N)n3)c2)c1 [B(36)]",
    "testedTarget": "FGF-R1 (Homo sapiens, UniProt P11362, C488A/C584S/L457V)",
    "inhibition at 1 µM, %": 23
  }
]

Record inhibition at 1 µM per entry; entries follow.
1. Cc1cccc(C(=O)Nc2cccc(-c3noc(-c4sc(NC(=O)NCCCN5CCOCC5)nc4N)n3)c2)c1 [O(12)]
2. COCC(C)NC(=O)Nc1nc(N)c(-c2nc(-c3cc(NC(=O)c4cccc(OC)c4)c(F)cc3F)cs2)s1 (stereo not shown) [O(14)]
3. COc1cccc(C(=O)Nc2ccc(C)c(-c3noc(-c4sc(Nc5ccccc5)nc4N)n3)c2)c1 [B(35)]

1: 33; 2: 10; 3: 39

Given the compound COc1cccc(C(=O)Nc2cc(-c3noc(-c4sc(Nc5cc(OC)c(OC)c(OC)c5)nc4N)n3)c(Cl)cc2F)c1 [D(70), TFA salt] , what is its reported inhibition at 1 µM?
59

====

Target: unphosphorylated VEGF-R2Δ50 (FLVK) (Homo sapiens, UniProt P35968, DEL940-989/E990V)
Construct: VEGF-R2Δ50 contains residues 806-939 and 990-1171; made in house; host or cells: baculovirus/insect cells
Sequence (P35968 with tags, fused parts or gaps DEL940-989/E990V limits assumed): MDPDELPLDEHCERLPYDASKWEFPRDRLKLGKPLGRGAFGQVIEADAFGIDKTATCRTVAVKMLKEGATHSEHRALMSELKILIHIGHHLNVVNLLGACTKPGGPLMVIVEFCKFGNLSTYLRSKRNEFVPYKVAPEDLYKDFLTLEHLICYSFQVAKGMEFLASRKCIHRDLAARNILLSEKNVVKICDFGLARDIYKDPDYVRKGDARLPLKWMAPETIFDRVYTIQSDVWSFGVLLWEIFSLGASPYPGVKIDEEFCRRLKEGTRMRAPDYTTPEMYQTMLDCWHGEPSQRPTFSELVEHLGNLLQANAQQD
Assay: VEGF-R2 coupled spectrophotometric assay, unphosphorylated enzyme (FLVK)
Assay type: biochemical
Details: Table 3; some entries 'Slow binder'
Procedure: VEGF-R2 Construct for Assay: This construct determines the ability of a test compound to inhibit tyrosine kinase activity. […] The production of ADP from ATP that accompanies phosphoryl transfer was coupled to oxidation of NADH using phosphoenolpyruvate (PEP) and a system having pyruvate kinase (PK) and lactic dehydrogenase (LDH). The oxidation of NADH was monitored by following the decrease of absorbance at 340 nm (e340=6.22 cm^−1 mM^−1) using a Beckman DU 650 spectrophotometer. […]
measuredAttribute: pKi
Numbers only, as −log10 of the molar value.

[
  {
    "structureSmiles": "COc1cc(Nc2nc(N)c(-c3nc(-c4cc(NC(=O)c5cccc(Cl)c5)ccc4Cl)no3)s2)cc(OC)c1OC",
    "experimentalResult": 8.85
  },
  {
    "structureSmiles": "COc1cc(Nc2nc(N)c(-c3nc(-c4cccc(NC(=O)c5cc(C)c(O)c(C)c5)c4)cs3)s2)cc(OC)c1OC",
    "experimentalResult": 8.85
  },
  {
    "structureSmiles": "COc1cccc(C(=O)Nc2cc(-c3noc(-c4sc(NC(=O)NCCOCCO)nc4N)n3)c(F)cc2F)c1",
    "experimentalResult": 9.82
  },
  {
    "structureSmiles": "CNc1nc(N)c(-c2nc(-c3cc(NC(=O)c4cccc(OC)c4)ccc3C)no2)s1",
    "experimentalResult": 8.47
  },
  {
    "structureSmiles": "COc1cc(Nc2nc(N)c(-c3nc(-c4cccc(NC(=O)c5cnc6ccccc6c5)c4)cs3)s2)cc(OC)c1OC",
    "experimentalResult": 8.85
  }
]

Can you give me pKi for all of these, one by one?
1. COc1cccc(C(=O)Nc2cc(-c3noc(-c4sc(Nc5ccc(N6CCN(C)CC6)nc5)nc4N)n3)c(C)cc2Cl)c1
2. COc1cccc(C(=O)Nc2cc(-c3noc(-c4sc(NC(=O)NCC(C)C)nc4N)n3)c(F)cc2F)c1

1. 8.52
2. 9.80

Please state pKi for every molecule in the list that follows.
1. COc1cccc(C(=O)Nc2cc(-c3csc(-c4sc(NC(=O)NCCN5CCOCC5)nc4N)n3)c(F)cc2F)c1
2. CCn1nc(C)cc1C(=O)Nc1ccc(C)c(-c2noc(-c3sc(Nc4ccc(CN5CCCC5)cc4)nc3N)n2)c1
3. COc1cccc(C(=O)Nc2cc(-c3noc(-c4sc(Nc5ccc(N6CCOCC6)nc5)nc4N)n3)c(F)cc2F)c1

1: 8.85; 2: 9.89; 3: 9.05

Could I get pKi for every one of these entries?
1. COc1cccc(C(=O)Nc2ccc(C)c(-c3noc(-c4sc(Nc5ccc(N6CCOCC6)nc5)nc4N)n3)c2)c1
2. COc1cc(Nc2nc(N)c(-c3nc(-c4cc(NC(=O)OC(C)(C)C)ccc4Cl)no3)s2)cc(OC)c1OC
3. COc1cccc(C(=O)Nc2cc(-c3noc(-c4sc(NC(=O)NCCCN5CCCC5=O)nc4N)n3)c(F)cc2F)c1
4. COc1cc(Nc2nc(N)c(-c3nc(-c4cccc(NC(=O)c5cccc(C(N)=O)c5)c4)no3)s2)cc(OC)c1OC
5. COc1cccc(C(=O)Nc2cc(-c3csc(-c4sc(NC(=O)NCCN5CCCC5)nc4N)n3)c(F)cc2F)c1
6. CC[C@@H](CO)NC(=O)Nc1nc(N)c(-c2nc(-c3cc(NC(=O)c4cccc(OC)c4)c(F)cc3F)cs2)s1
7. CCn1nc(C)cc1C(=O)Nc1ccc(C)c(-c2noc(-c3sc(Nc4cccc(CN5CCCC5)c4)nc3N)n2)c1

9.25
8.80
9.48
8.39
8.77
8.82
9.44
